- System: MPNST complex spheroid with HUVEC/MSC, growth, % test/control
- Experiment: Anticancer human tumor MPNST cell line growth inhibition [Asc];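 further: compounds left on spheroids for seven days before reading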
- Stated conditions: second compound 0.3 µM; first compound 0.1 µM; stronger effect = lower value
// viability, T/C lookup, one value per entry

Molecule	System	Units	viability, T/C
COc1c(OCCCN2CCOCC2)ccc2c3n(c(=NC(=O)c4cnc(N)nc4)nc12)CCN3 + CCN1C(C(=O)NC23CCC(C(=O)O)(CC2)CC3)C(c2cccc(Cl)c2F)C2(C(=O)Nc3cc(Cl)ccc32)C12CCCCC2	MPNST complex spheroid with HUVEC/MSC, growth, % test/control	%	36.5
C=C(F)C(=O)N1CCN(c2nc(OCC3CCCN3C)nc3c2CCN(c2cccc4cccc(Cl)c24)C3)CC1CC#N (centres undefined) + CCN1C(C(=O)NC23CCC(C(=O)O)(CC2)CC3)C(c2cccc(Cl)c2F)C2(C(=O)Nc3cc(Cl)ccc32)C12CCCCC2	MPNST complex spheroid with HUVEC/MSC, growth, % test/control	%	85.3
O=C(c1cc(Cc2n[nH]c(=O)c3ccccc23)ccc1F)N1CCN(C(=O)C2CC2)CC1 + CCN1C(C(=O)NC23CCC(C(=O)O)(CC2)CC3)C(c2cccc(Cl)c2F)C2(C(=O)Nc3cc(Cl)ccc32)C12CCCCC2	MPNST complex spheroid with HUVEC/MSC, growth, % test/control	%	115
O=C(c1ccc(F)c(F)c1Nc1ccc(I)cc1F)N1CC(O)([C@@H]2CCCCN2)C1 + CCN1C(C(=O)NC23CCC(C(=O)O)(CC2)CC3)C(c2cccc(Cl)c2F)C2(C(=O)Nc3cc(Cl)ccc32)C12CCCCC2	MPNST complex spheroid with HUVEC/MSC, growth, % test/control	%	91.8

----------
- Tested on: MPNST complex spheroid with HUVEC/MSC, growth, % test/control
- Experiment: Anticancer human tumor MPNST cell line growth inhibition [Asc];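 further: compounds left on spheroids for seven days before reading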
- Stated conditions: curve of first compound; second compound 1 µM

Compound	System	IC50
O=C(c1ccc(F)c(F)c1Nc1ccc(I)cc1F)N1CC(O)([C@@H]2CCCCN2)C1 + CNC(C)C(=O)NC1CN(S(=O)(=O)c2cccc(S(=O)(=O)N3CCC4CCC(C(=O)NC(c5ccccc5)c5ccccc5)N4C(=O)C(NC(=O)C(C)NC)C3)c2)CCC2CCC(C(=O)NC(c3ccccc3)c3ccccc3)N2C1=O	MPNST complex spheroid with HUVEC/MSC, growth, % test/control	0.892 µM
NC1CCC(NC2CC2c2ccccc2)CC1 (stereo not drawn) + Cc1c(S(C)(=O)=O)c(-c2cc(F)cc(N3CCN(c4ccc(NS(=O)(=O)c5ccc(NC(CCN6CCC(C(=O)OCCCP(=O)(O)O)CC6)CSc6ccccc6)c(S(=O)(=O)C(F)(F)F)c5)cc4)CC3)c2)c(-c2ccc(Cl)cc2)n1C(C)C	MPNST complex spheroid with HUVEC/MSC, growth, % test/control	> 0.1 µM
Cn1ncnc1[C@H]1c2n[nH]c(=O)c3cc(F)cc(c23)N[C@@H]1c1ccc(F)cc1 + Cc1c(S(C)(=O)=O)c(-c2cc(F)cc(N3CCN(c4ccc(NS(=O)(=O)c5ccc(NC(CCN6CCC(C(=O)OCCCP(=O)(O)O)CC6)CSc6ccccc6)c(S(=O)(=O)C(F)(F)F)c5)cc4)CC3)c2)c(-c2ccc(Cl)cc2)n1C(C)C	MPNST complex spheroid with HUVEC/MSC, growth, % test/control	> 0.1 µM
